B1: FUT8 (parent)
chain: YPSYKVREKIETVKYPTYPEAEK

- Variants of: B1
- ASSAY PROCEDURE: protein stability index of a GFP-peptide fusion (GPS, HEK-293T) (PSI 1-6); higher = more stable;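 note: lentivirally expressed fusions sorted by FACS into six bins by GFP to DsRed ratio, PSI derived from sequencing read proportions per bin multiplied by bin number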
- REPORTED CONDITIONS: c terminus: native
# Lookup of reported protein stability index keyed by entry
REPORTED METRIC: protein stability index

{"MUTANT": "P16L", "REPORTED METRIC": "protein stability index", "REPORTED MEASUREMENT": 4.03}
{"MUTANT": "T12G", "REPORTED METRIC": "protein stability index", "REPORTED MEASUREMENT": 4.01}
{"MUTANT": "P19G", "REPORTED METRIC": "protein stability index", "REPORTED MEASUREMENT": 3.94}
{"MUTANT": "K9R", "REPORTED METRIC": "protein stability index", "REPORTED MEASUREMENT": 3.98}
{"MUTANT": "E20H", "REPORTED METRIC": "protein stability index", "REPORTED MEASUREMENT": 3.97}

All values here come from the supplement of paper PMC10567573.
